Tested on: RXRa DBDmut IVT, anti-RXR (DBD mutation: RXRa K156A/R161A, NR concentration 90 nM)
PROCEDURE_DETAILS: PBM binding z-score (relative to random genomic background probes); higher = stronger binding; sequences stand for … in GC…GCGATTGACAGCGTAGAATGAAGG
ENDPOINT_NAME: PBM binding z-score
Give a plain numeric answer without units written out.

Previously resolved entries follow.
SEQUENCE_CONTENT | PBM binding z-score
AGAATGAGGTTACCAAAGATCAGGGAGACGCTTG | 1.28
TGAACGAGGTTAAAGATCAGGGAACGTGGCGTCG | 0.835
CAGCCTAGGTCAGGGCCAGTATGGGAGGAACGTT | -0.69
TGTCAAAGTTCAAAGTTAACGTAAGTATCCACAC | 4.53
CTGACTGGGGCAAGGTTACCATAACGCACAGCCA | 0.0299
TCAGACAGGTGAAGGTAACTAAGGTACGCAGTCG | 1.14
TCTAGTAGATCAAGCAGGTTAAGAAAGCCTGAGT | 0.554
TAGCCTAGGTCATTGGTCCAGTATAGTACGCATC | 1.98

stdin: Given the sequence `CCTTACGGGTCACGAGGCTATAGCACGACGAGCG` , what is its reported PBM binding z-score?
stdout: 0.992

stdin: Entry to check: `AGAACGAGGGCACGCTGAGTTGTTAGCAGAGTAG`
stdout: 1.95

stdin: Entry to check: `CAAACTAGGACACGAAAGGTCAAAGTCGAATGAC`
stdout: 1.45

stdin: Entry to check: `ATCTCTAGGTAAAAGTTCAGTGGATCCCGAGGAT`
stdout: 0.861

----------
System: FXR:RXRa (NR concentration 270 nM, RXRa partner concentration 90 nM)
PROCEDURE_DETAILS: PBM binding z-score (relative to random genomic background probes); higher = stronger binding; sequences stand for … in GC…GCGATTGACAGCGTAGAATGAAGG
Give label 1 when the value for PBM binding z-score is at least 2. Give label 0 when it is less.

Below are worked cases with known answers.
SEQUENCE_CONTENT | GROUP
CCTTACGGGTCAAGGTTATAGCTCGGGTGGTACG | label 1
ATATGTAGGTTAGCTCGGGTCATTCAGACTAGGC | label 1
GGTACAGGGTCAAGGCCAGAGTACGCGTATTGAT | label 1
CCGACTGTGGCAAGGTTACCATAACGCACAGCCA | label 0
TCATATAGGTAGATGCTAGGTGAAAGTCCGATCT | label 0
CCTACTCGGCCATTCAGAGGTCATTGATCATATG | label 1
GCGACTGGGGCAAAGCAGGTTACTATAAGGTTGG | label 0
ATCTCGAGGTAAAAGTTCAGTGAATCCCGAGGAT | label 0

stdin: Please indicate if the recorded PBM binding z-score for `TCATATAGGTAAAGGTGAGAGTCGAACGATATGA` meets or exceeds 2.
stdout: label 0

stdin: Entry to check: `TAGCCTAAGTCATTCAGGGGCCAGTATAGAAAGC`
stdout: label 0

stdin: Entry to check: `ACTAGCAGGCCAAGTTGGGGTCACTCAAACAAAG`
stdout: label 1

stdin: Entry to check: `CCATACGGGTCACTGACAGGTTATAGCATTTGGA`
stdout: label 1

stdin: Entry to check: `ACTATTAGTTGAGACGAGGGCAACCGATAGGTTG`
stdout: label 0

stdin: Entry to check: `TGAATGCGGTTAAAGATCAGGGAACGTGGCGTCG`
stdout: label 0

----------
Tested on: PPARg:RXRa 270nM:90nM, anti-RXR (NR concentration 270 nM, RXRa partner concentration 90 nM)
PROCEDURE_DETAILS: PBM binding z-score (relative to random genomic background probes); higher = stronger binding; sequences stand for … in GC…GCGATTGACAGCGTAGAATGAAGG
Give 1 (yes) when the value for PBM binding z-score is at least 2. Give 0 (no) when it is less.

Below are worked cases with known answers.
SEQUENCE_CONTENT | GROUP
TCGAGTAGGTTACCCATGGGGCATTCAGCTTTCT | 0 (no)
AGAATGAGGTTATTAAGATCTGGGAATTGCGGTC | 0 (no)
GCGACTGGGGCATCAGCCGGTTACCATAACTTAA | 0 (no)
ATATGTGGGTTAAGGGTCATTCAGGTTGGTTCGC | 1 (yes)
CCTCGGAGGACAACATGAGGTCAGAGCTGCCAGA | 0 (no)
TCGAGTGGGTTAGGGGCATTCAGAATGGCGTCGA | 0 (no)
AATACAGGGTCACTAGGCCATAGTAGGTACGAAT | 1 (yes)
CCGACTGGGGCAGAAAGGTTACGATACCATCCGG | 1 (yes)

stdin: Please indicate if the recorded PBM binding z-score for `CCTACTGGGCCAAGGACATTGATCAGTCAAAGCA` meets or exceeds 2.
stdout: 0 (no)

stdin: Entry to check: `TCATATAGGTAAAGGTTAAAGTCGAACGATATGA`
stdout: 1 (yes)

stdin: Entry to check: `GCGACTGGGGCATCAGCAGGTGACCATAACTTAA`
stdout: 0 (no)

stdin: Entry to check: `TCTGCTAGGTCAACGATGGTCAGCTAATCTGCTA`
stdout: 1 (yes)

----------
System: PPARa:RXRa (NR concentration 270 nM, RXRa partner concentration 90 nM)
PROCEDURE_DETAILS: PBM binding z-score (relative to random genomic background probes); higher = stronger binding; sequences stand for … in GC…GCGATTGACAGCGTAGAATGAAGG
ENDPOINT_NAME: PBM binding z-score

SEQUENCE_CONTENT | ENDPOINT_NAME | MEASURED
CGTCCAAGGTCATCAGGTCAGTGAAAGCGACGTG | PBM binding z-score | 5.83
AGTCAAAGTTCACTTGGTAACGTAAGATTCAGCT | PBM binding z-score | 3.85
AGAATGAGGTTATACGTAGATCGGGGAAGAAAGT | PBM binding z-score | 3.29
CGAATTAGGTCAGAACAGGACAGTGAAGGATGAT | PBM binding z-score | 3.41
TAGCCTAGGTCATATCGGGCCAGTATACGCTATA | PBM binding z-score | 3.14

Please turn your attention to the following entry.
stdin: Given the sequence `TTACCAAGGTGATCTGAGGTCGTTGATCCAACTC` , what is its reported PBM binding z-score?
stdout: 1.78

----------
Tested on: RARg:RXRa (NR concentration 270 nM, RXRa partner concentration 90 nM)
PROCEDURE_DETAILS: PBM binding z-score (relative to random genomic background probes); higher = stronger binding; sequences stand for … in GC…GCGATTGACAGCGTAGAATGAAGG
ENDPOINT_NAME: PBM binding z-score
Give a plain numeric answer without units written out.

SEQUENCE_CONTENT | PBM binding z-score
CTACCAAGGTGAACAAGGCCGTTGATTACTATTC | 0.749
ATACCATGGTGATCGTGAGGTCGTTGATACTAAC | 0.425
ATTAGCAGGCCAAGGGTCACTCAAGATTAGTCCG | 4.22
TCGAGGAGGTTACCAATGGGGCATTCAGCTTTCT | 2.85

stdin: Given the sequence `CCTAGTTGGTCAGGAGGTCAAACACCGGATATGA` , what is its reported PBM binding z-score?
stdout: 5.37

stdin: Entry to check: `TCATATAGTTAAATGCTAGGTGAAAGTCCGATCT`
stdout: 0.1

stdin: Entry to check: `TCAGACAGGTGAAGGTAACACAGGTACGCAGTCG`
stdout: 0.896

stdin: Entry to check: `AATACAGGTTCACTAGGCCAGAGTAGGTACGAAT`
stdout: 1.84

stdin: Entry to check: `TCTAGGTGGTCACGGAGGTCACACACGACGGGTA`
stdout: 5.09

stdin: Entry to check: `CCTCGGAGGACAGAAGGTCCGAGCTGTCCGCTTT`
stdout: -0.392

stdin: Entry to check: `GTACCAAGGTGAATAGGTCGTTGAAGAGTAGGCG`
stdout: 2.81

stdin: Entry to check: `TTACCAAGGTGAGCTGAGGTCGTCGATCCAACTC`
stdout: 1.37

----------
Test system: PPARg DBDmut IVT, anti-PPARg (DBD mutation: PPARg1 K132A/R137A, NR concentration 270 nM)
PROCEDURE_DETAILS: PBM binding z-score (relative to random genomic background probes); higher = stronger binding; sequences stand for … in GC…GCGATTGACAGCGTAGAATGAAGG
Categories are assigned from the measured PBM binding z-score using these intervals: group A = under -0.3, group B = from -0.3 up to 0.7, group C = 0.7 and over

SEQUENCE_CONTENT | GROUP
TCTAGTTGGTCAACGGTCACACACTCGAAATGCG | group C
TCTCGGAGGACATGAAAGGTCAGAGCTCGACATC | group A
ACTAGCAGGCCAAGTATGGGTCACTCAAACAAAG | group B
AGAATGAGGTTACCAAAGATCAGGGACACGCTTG | group B
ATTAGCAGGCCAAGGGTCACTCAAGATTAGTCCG | group B
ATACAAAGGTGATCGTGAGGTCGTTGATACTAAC | group C
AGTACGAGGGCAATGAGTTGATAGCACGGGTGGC | group B
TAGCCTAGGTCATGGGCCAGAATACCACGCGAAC | group A

stdin: Hi, small favor: classify `AGAACGAGGGCACGCTGAGTTGATAGCTGAGTAG` by its PBM binding z-score when you get a moment.
stdout: group B

stdin: Entry to check: `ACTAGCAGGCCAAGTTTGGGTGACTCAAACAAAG`
stdout: group A

stdin: Entry to check: `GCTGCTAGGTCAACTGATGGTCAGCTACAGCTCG`
stdout: group A

stdin: Entry to check: `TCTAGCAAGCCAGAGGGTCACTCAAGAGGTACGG`
stdout: group A

stdin: Entry to check: `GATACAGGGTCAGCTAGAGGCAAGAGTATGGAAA`
stdout: group B

stdin: Entry to check: `CGAACTAGGTCATTGACAGGACAGTGTATAGTAA`
stdout: group C

stdin: Entry to check: `CCGACTGGGGCAGAAAGGGTACCATACCATCCGG`
stdout: group A

stdin: Entry to check: `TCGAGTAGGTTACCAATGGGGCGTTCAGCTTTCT`
stdout: group A

stdin: Entry to check: `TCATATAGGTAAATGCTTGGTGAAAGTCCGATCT`
stdout: group C

stdin: Entry to check: `TCGAGTAGGTTAGGGGCATTCCGAATGGCGTCGA`
stdout: group A
